melting point overview

COMPOUND: COCc1cc(OC)c(-c2ccc(C[C@H](NC(=O)c3c(Cl)cccc3Cl)C(=O)O)cc2)c(OC)c1
melting point: 232 to 235 °C
--
COMPOUND: CC(=O)N1CCC(c2nn(-c3ccccc3)c3cc(Cl)ccc23)CC1
melting point: 130 to 132 °C
--
COMPOUND: COCOc1cc(Cl)ccc1-c1cc(-c2cccc(C(=O)O)c2)c(C#N)c(NC(=O)c2ccco2)n1
melting point: 214 to 216 °C
--
COMPOUND: CCOCN1C(C)=C(C(=O)OC)[C@H](c2cccc([N+](=O)[O-])c2)C(C(=O)OCOC(=O)C(C)(C)C)=C1C
melting point: 81 to 82 °C
--
COMPOUND: CC(C)(C=O)Oc1ccc(Cl)cc1C#N
melting point: 85 to 88 °C

compound `Nc1ncccc1-c1nc2cc(-c3ccc(C(=O)O)o3)cnc2n1-c1ccc(CNC(=O)c2ccccc2)cc1` , melting point observed: 211 to 217 °C

compound `CCOCc1oc(-c2ccc(C(F)(F)F)cc2)cc1C(=O)OCC` , melting point observed: 103 to 105 °C

compound `CCOC(=O)COc1cc(Cl)c(C(=O)c2ccc([N+](=O)[O-])cc2)c(Cl)c1` , melting point observed: 96 to 98 °C

compound `Fc1ccccc1-c1ccc2nnn(Cc3ccc4ncccc4c3)c2n1` , melting point observed: 164 to 166 °C

compound CC(C)(C)NC(=O)c1ncccc1CC(=O)C1CCC(C(=O)O)CC1 (centres undefined) , melting point observed: 160 °C

compound CCC1CC(=O)NN=C1c1ccc2nc(-c3ccncc3)[nH]c2c1 (centres undefined) , melting point observed: 299 to 302 °C

compound CC(C)(C)OC(=O)C(C#N)C(c1cccc2ccccc12)c1cccc2ccccc12 (centres undefined) , melting point observed: 156 to 157 °C

----------
melting point overview

Examples from the recorded data:
COMPOUND: CC(C)(C)c1csc(NC(=O)c2ccccc2)c1C#N
RESULT_TYPE: melting point
ENDPOINT_VALUE: 130 °C
--
COMPOUND: CNC(=O)ON=C1SCOC1COC (stereo unspecified)
RESULT_TYPE: melting point
ENDPOINT_VALUE: 105 to 106 °C
--
COMPOUND: COc1cccc2c(=O)[nH]c(C3CCN(C)CC3)cc12
RESULT_TYPE: melting point
ENDPOINT_VALUE: 239 to 242 °C
--
COMPOUND: NS(=O)(=O)c1ccc(-n2nc(CCl)cc2-c2ccc(Cl)cc2)cc1
RESULT_TYPE: melting point
ENDPOINT_VALUE: 198 to 201 °C
--
COMPOUND: CCOC(=O)C(C#N)=CN(C)C1CCCCC1
RESULT_TYPE: melting point
ENDPOINT_VALUE: 71 to 72 °C

compound `NC1=NN(c2ccccn2)CC1` , melting point observed: 168 to 170 °C

----------
RESULT_TYPE: melting point

Examples from the recorded data:
COMPOUND: c1cn(CCCCn2ccnc2)cn1
melting point: 84 to 86 °C
//
COMPOUND: COC(=O)OCCNC(=O)C(F)(F)Cc1c[nH]c([N+](=O)[O-])n1
melting point: 50.5 to 52.5 °C
//
COMPOUND: Cn1cnc2nc(-c3cccc4ccccc34)nn2c1=S
melting point: 278 to 279 °C
//
COMPOUND: O=C1CCC(N2Cc3c(OCc4ccc5nc(CN6CCOCC6)cn5c4)cccc3C2=O)C(=O)N1 (stereo not given)
melting point: 278 to 280 °C

Here is the next item to consider.
compound `COC(=O)c1cc(OCC=C(Cl)Cl)cc(Cl)c1O` , melting point observed: 86 °C

----------
melting point overview

COMPOUND: COc1cccc(C2(O)c3c(C)c(NC(=O)CC(C)(C)C)c(C)c(C)c3OC2(C)C)c1 (centres undefined)
melting point: 154 to 155 °C

compound `O=C1c2cccc([N+](=O)[O-])c2C(=O)N1c1cccc2ccc(O)cc12` , melting point observed: 136 to 137 °C

compound `COc1ccc(C)cc1NC(=O)Nc1ccc(N2CCN(C(N)=O)CC2)cc1` , melting point observed: 136 °C

compound `CCC[C@H](Oc1cc(C)c(-n2cc(C(F)(F)F)cn2)c(C)c1)c1ccc(C(=O)NCCC(=O)O)cc1` , melting point observed: 157 to 159 °C

compound `Clc1cc(N2CCN(CCOc3ccc(Br)cc3)CC2)c(Cl)nn1` , melting point observed: 124 to 126 °C

compound OC1CC(c2ccc(Oc3ccc(-c4ccc(Cl)cc4)cc3)cc2)Cc2ccccc21 (centres undefined) , melting point observed: 156 °C

compound `CCCCn1nc2c(N)nc3ccccc3c2c1CCCS(=O)(=O)c1ccccc1` , melting point observed: 206 to 207 °C

compound `CCCn1nnc2c(Nc3ccc(C(C)C)cc3Br)nc(C)nc21` , melting point observed: 80 to 81 °C

compound `CC(C)[C@H]1OC[C@H](Nc2nnc(Cc3ccc(O)nc3)c3ccccc23)CO1` , melting point observed: 108 to 109 °C

compound `COc1ccc(-c2nc3c(OC(C)=O)cccc3s2)cc1` , melting point observed: 122 to 124 °C

compound O=c1oc2c(c(O)c1C(c1ccccc1)C1CC1)CCCCCC2CC1CCCCO1 (centres undefined) , melting point observed: 88 to 93 °C

compound `C=Cc1c(N)nc(-c2ccc(Cl)c(F)c2F)nc1C(=O)OC` , melting point observed: 130 to 132 °C

compound `CCOC(=O)c1ccc(C=CCN2CCc3nc(N)sc3CC2)cc1` , melting point observed: 111 to 115 °C

compound `CCCCCc1scc(C(=O)OC)c1NC1=CC(=O)N(CCC)C1` , melting point observed: > 285 °C

----------
RESULT_TYPE: melting point

Examples from the recorded data:
COMPOUND: c1csc(-c2nc3cc(COc4ccc(CCCn5ccnc5)cc4)ccc3o2)c1
melting point: 130 to 131 °C
//
COMPOUND: CC1(C)C(=O)C(c2ccc(F)c(F)c2)=C1c1ccc(S(C)(=O)=O)cc1
melting point: 118 °C

compound `Nc1nc(Cl)nc2c1ncn2[C@@H]1S[C@H](CO)[C@@H](O)[C@H]1O` , melting point observed: 220 to 222 °C

compound `N#Cc1ccc(N2CCN(Cc3cnc4c(c3)NC(=O)[C@@H]3CCCN43)CC2)cc1` , melting point observed: 252 °C

compound `Cn1cc(CCN2C(=O)c3ccccc3C2=O)c2cc(CC(N)=O)ccc21` , melting point observed: 200 to 202 °C

compound `O=C(O)CCC(=NOCc1ccc(OCc2ccccc2)cc1)c1ccccc1` , melting point observed: 86 to 87 °C

compound `Nc1ncnc2nsnc12` , melting point observed: 247 to 249 °C

compound CC(C)CCC1CCCCc2c1oc(=O)c(C(c1ccccc1)C1CC1)c2O (stereo unspecified) , melting point observed: 67 to 77 °C

compound CN(C(CCN1C(=O)CNC1=O)C(=O)NO)S(=O)(=O)c1ccc(Oc2ccccc2)cc1 (stereo unspecified) , melting point observed: 146 to 147 °C

compound `Nc1cc(Br)cc(OCCF)c1` , melting point observed: 48.5 to 50 °C

compound CC12CC(F)C3c4ccc(O)cc4CC(CCCCCN4CCCC4CSCCCC(F)(F)C(F)(F)F)C3C1CCC2O (stereo unspecified) , melting point observed: 174 to 176 °C

compound `O=S(=O)(c1ccccc1)c1ccc(Br)cc1` , melting point observed: 95 to 99 °C

compound CC(C(=O)Nc1ccc2[nH]c(=O)oc2c1)N1CCC(Cc2ccccc2)CC1 (stereo unspecified) , melting point observed: 116 to 118 °C

compound `Cc1ccc(-c2nc(O)cc(O)n2)cc1` , melting point observed: 314 °C

compound `Cc1cccc2cc(C(=O)N(C)C)c(C=CNc3ccc(F)cc3)nc12` , melting point observed: 172 to 173 °C

compound `FC(F)(F)c1cc(Nc2nc3ccccc3o2)ccc1Cl` , melting point observed: 199 to 200 °C

compound `O=c1[nH]c2ncc(-c3cccc(-c4cn[nH]n4)c3)nc2n1CC1CCCCC1` , melting point observed: 299 to 301 °C

compound `O=Cc1cn(CCCCl)c2ccc(Cl)cc12` , melting point observed: 107 to 108 °C

compound `CCNC(=O)c1ccc(C#CCc2ccc3c(c2)C(C)(C)CCC3(C)C)cc1` , melting point observed: 128 to 129 °C

compound `O=C1c2ccc(N3CCCC3)c3c(Cl)c(Cl)cc(c23)C(=O)N1O` , melting point observed: 200 to 201 °C

compound CC(=O)OC1CSC(Oc2cc(-c3ccc(F)nc3)cnc2F)C(OC(C)=O)C1OC(C)=O (stereo unspecified) , melting point observed: 135 to 136 °C

----------
melting point overview

MOLECULE: CSc1ccc(C(=O)NCc2ccc3c(c2)C(=O)N(C2(C)CCC(=O)NC2=O)C3=O)cc1 (centres undefined)
ENDPOINT_VALUE: 218 to 220 °C

molecule `O=C(NCc1nccs1)c1ccnc(N2CCN(Cc3ccc(F)cc3)C2=O)c1` , melting point observed: 123 to 125 °C

molecule `CCOC(=O)C(=CNc1cc(C)nn1-c1ccccn1)C(=O)OCC` , melting point observed: 128 to 131 °C

molecule `CCCCN(C(=O)c1ccccc1)C(=NC(=O)c1ccccc1)Nc1ccc(C(N)=O)cc1` , melting point observed: 90 to 92 °C

molecule `CN1c2ccccc2-c2nc3ccc(Cl)cc3c3cc(OS(=O)(=O)C(F)(F)F)cc1c23` , melting point observed: 193 to 195 °C

molecule `CC(=O)Nc1ccc2ccccc2c1-c1c(P(=O)(c2ccccc2)c2ccccc2)ccc2ccccc12` , melting point observed: 95.4 °C
